- System: SNB-75 CNS
- run-description: NCI-60 one-dose screen, 48 h (100 = growth as untreated, 0 = no growth, -100 = all killed)
- applied-conditions: 10 µM unless noted
The panel holds about 83,000 compounds, 20% with a hit somewhere; the sample as a whole holds those more often.
readout: growth (%)
Note: unit % is implicit; provide only the numeric part.

# count of solved cases: 2
{"smiles-input": "O=S(=O)(Nc1ccc(NS(=O)(=O)c2ccccc2)c(Cl)c1)c1ccccc1", "output-unit": "%", "observed": 84.9}
{"smiles-input": "COc1cc(C(=O)Oc2ccccc2OC(=O)c2cc(OC)c(OC)c(OC)c2)cc(OC)c1OC", "output-unit": "%", "observed": 95.3}

Would you kindly look at the next entry?
Lookup: Provide growth value for the following compound: CCCOc1cc2ccccc2cc1C(=O)Nc1nc(NC)c2c(ccc3nccc32)[nH]1
Found: -87.1
